system: GABA receptor complex (GRC); assay: [35S]TBPS binding in rat cerebral cortex P2 homogenate; settings: maximum inhibition of [35S]TBPS binding
Test Readout: IMAX (maximum inhibition)

>>> df
                                   compound  value_measured
0  CC(=O)[C@H]1CC[C@H]2[C@@H]3CC[C@H]4C[C@H](O)CC[C@]4(C)[C@H]3CC[C@]12C [3α-Hydroxy-5α-pregnan-20-one, reference compound]             95%
1  COCC1(O)CCC2(C)C(CCC3C2CCC2(C)C(C(=O)CSc4ccc(N)cc4)CCC32)C1 (stereo not drawn)             89%
2  CC(C)CCC[C@@H](C)[C@H]1CC[C@H]2[C@@H]3CC=C4C[C@@H](O)CC[C@]4(C)[C@H]3CC[C@]12C [Cholesterol, reference compound]              0%
